# Test system: A549 NSCLC
# ASSAY_PROCEDURE: NCI tumour cell line growth inhibition, 48 h; in the data active = GI50 below about 0.43 µM; inactive = the rest
Select the matching outcome among yes (1) for active, no (0) for inactive

Hi team, can someone confirm the assay call for C/C(=N/O)c1ccc2c(c1)/C(=N/O)c1ccccc1-2 ?
no (0)

Hi team, can someone confirm the assay call for CC[C@]1(O)CC2CN(CCc3c([nH]c4ccccc34)[C@@](C(=O)OC)(c3cc4c(cc3OC)N(C=O)[C@H]3[C@@](O)(C(=O)OC)[C@H](OC(C)=O)[C@]5(CC)C=CCN6CC[C@]43[C@@H]65)C2)C1 (stereo not given in full) ?
yes (1)

Hi team, can someone confirm the assay call for CC(C)(C)NC(=O)[C@H]1CC[C@H]2[C@@H]3CC[C@H]4NC(=O)C=C[C@]4(C)[C@H]3CC[C@]12C ?
no (0)

Hi team, can someone confirm the assay call for COc1ccc(-c2nn(-c3ccc(NC(=O)c4cc(Cl)cc(Cl)c4)cc3)cc2-c2ccncc2)cc1Cl ?
no (0)

Hi team, can someone confirm the assay call for CCN(CC)c1ccc2nc3c4ccccc4c(=O)cc-3n(-c3ccccc3)c2c1 ?
no (0)

Hi team, can someone confirm the assay call for CCCCCCCCCC(CCCC(O)CC(=O)O)OC1OC(COC2OC(C)C(OC(C)=O)C(O)C2O)C(O)C(O)C1OC1OC(CO)C(O)C(O)C1OC1OC(C)C(OC(=O)CC(C)C)C(O)C1O (stereo not given) ?
no (0)

Hi team, can someone confirm the assay call for O=C(COc1ccc(OCC(=O)N2C(=O)CN(c3ccccc3)C2=S)cc1)N1C(=O)CN(c2ccccc2)C1=S ?
no (0)

Hi team, can someone confirm the assay call for CCCCCCCCCCCCCCCCCCOc1ccccc1CC(=O)OCC[N+](CC)(CC)CC ?
no (0)

Hi team, can someone confirm the assay call for CCCCCC[C@@H](C)Nc1nc2ccccc2c2occc12 ?
no (0)

Hi team, can someone confirm the assay call for O=c1c2ccccc2nc(-c2ccccc2Cl)n1-c1nnc(C(F)(F)F)s1 ?
no (0)

###

For each entry below, report its GI50 value.
# Tested on: HCC-2998 colon
# ASSAY_PROCEDURE: NCI tumour cell line growth inhibition, 48 h

Lab book: GI50 of Nc1nnnc2nc[nH]c12 noted as 1260 nM

Lab book: GI50 of O=C1c2cccnc2C(=O)c2c1c(C(=O)NCCn1ccnc1)c1ccccn21 noted as 2230 nM

Lab book: GI50 of Cc1ccc(-c2nc(N3CCNCC3)c3oc(-c4ccccc4)nc3n2)cc1 noted as > 100000 nM

Lab book: GI50 of CCN(CC)CCC(CNc1ccnc2cc(Cl)ccc12)c1ccccc1 (stereo unspecified) noted as 2090 nM

Lab book: GI50 of Clc1ccc(Nc2nc(Nc3ccccc3)nc(Nc3ccc(-c4cc(-c5ccc(Cl)cc5)on4)cc3)n2)cc1 noted as 29100 nM

Lab book: GI50 of CCCCCCCCCCCCCCCCCCOc1ccccc1CC(=O)OCC[N+](CC)(CC)CC noted as 1220 nM

###

# Tested on: HS 578T breast
# ASSAY_PROCEDURE: NCI tumour cell line growth inhibition, 48 h
MEASURED_QUANTITY: TGI

Lab book: TGI of CN(C)C(=O)OC1=CC2CCC(C1)N2C (stereo unspecified) noted as > 100 µM

Lab book: TGI of CCOC(=O)/C(C#N)=C1\SS/C(=C(/C#N)C(=O)OCC)S1 noted as > 100 µM

Lab book: TGI of CCN(CC)c1ccc(C2Nc3ccc4ccccc4c3C3=C2C(=O)CCC3)cc1 (stereo unspecified) noted as 34.4 µM

Lab book: TGI of CCOC(=O)c1sc2c(c1O)c(=O)n(-c1ccccc1)c(=S)n2-c1ccccc1 noted as > 100 µM

Lab book: TGI of CCOC(=O)c1nc2ccccc2nc1Nc1ccc(OC)cc1 noted as > 100 µM

Lab book: TGI of C[C@H](CS)C(=O)N1c2ccccc2C[C@H]1C(=O)O noted as > 100 µM

###

For each entry below, report its TGI value.
# Tested on: HT29 colon
# ASSAY_PROCEDURE: NCI tumour cell line growth inhibition, 48 h

Lab book: TGI of O=C(O)C1CCCCN1C(=O)Cc1c[nH]c2ccccc12 (stereo unspecified) noted as > 100 µM

Lab book: TGI of CCOC(=O)c1nc2ccccc2nc1Oc1ccc(C#N)cc1 noted as > 100 µM

Lab book: TGI of C[C@@H]1CCC2C(C)(C)C(/C=C\C=O)C3(C)OC213 (stereo partly specified) noted as 62 µM

Lab book: TGI of COc1cc(C(c2cccc3ccccc23)N2C(=O)CCC2C(=O)O)cc(OC)c1OC (stereo unspecified) noted as > 100 µM

Lab book: TGI of CC1=CC(O)C(C(O)(C(F)(F)F)C(F)(F)F)C(C)(C)C1 (stereo unspecified) noted as > 10 µM

Lab book: TGI of O=C1C2Cc3c(n(C(=O)c4ccccc4)c4ccccc34)CC2C(=O)N1c1ccc(Nc2ccc(N3C(=O)C4Cc5c(n(C(=O)c6ccccc6)c6ccccc56)CC4C3=O)cc2)cc1 (stereo unspecified) noted as > 100 µM

Lab book: TGI of COc1ccc(-c2[nH]nc(N)c2-c2cc(OC)c3c(c2)OCO3)cc1 noted as 25.7 µM

Lab book: TGI of O=C1c2cccnc2C(=O)c2c1c(C(=O)NCCn1ccnc1)c1ccccn21 noted as 9.2 µM

Lab book: TGI of NC1=NC(=O)/C(=C/c2ccc3ncccc3c2)S1 noted as > 25 µM

Lab book: TGI of OCc1ccc(N2CCc3cc(F)ccc3C2)cc1Cl noted as 14.1 µM

Lab book: TGI of COc1ccc2nc(-c3ccccc3)cc(Nc3cccc(C(C)=O)c3)c2c1 noted as > 100 µM

###

For each entry below, report its TGI value.
# System: SR leukemia
# ASSAY_PROCEDURE: NCI tumour cell line growth inhibition, 48 h
Write it as a number; the unit µM goes unstated.

Lab book: TGI of Cc1ccc(NC(=O)Nc2c(Cl)cccc2Cl)cn1 noted as 22.7

Lab book: TGI of Cc1cccc(/C=N\NC(=S)N2CCCCC2)n1 noted as 0.123

Lab book: TGI of Oc1cc(CN2CCOCCOCCOCCOCC2)c(O)cc1CN1CCOCCOCCOCCOCC1 noted as 43.8

Lab book: TGI of CC1(C)S[C@H](CN)N[C@H]1C(=O)OC(c1ccccc1)c1ccccc1 noted as 63.6

###

For each entry below, report its TGI value.
# Tested on: SK-MEL-28 melanoma
# ASSAY_PROCEDURE: NCI tumour cell line growth inhibition, 48 h

Lab book: TGI of O=C(O)C1CCCCN1C(=O)Cc1c[nH]c2ccccc12 (stereo not given) noted as > 100 µM

Lab book: TGI of COC1OC(CBr)C(OC(=O)c2ccccc2)C(OS(=O)(=O)c2ccc(C)cc2)C1Br (stereo not given) noted as > 100 µM

Lab book: TGI of COc1ccc2c(c1)[n+](=O)c(C(=O)C/C(=N/NC(=O)C[N+](C)(C)C)C(=O)Nc1cccc(C)c1C)c(C)n2O noted as > 100 µM

Lab book: TGI of O=c1c2ccccc2nc(-c2ccccc2Cl)n1-c1nnc(C(F)(F)F)s1 noted as 90.9 µM

Lab book: TGI of CCCCOCOc1ccccc1P1(=O)COc2ccccc2OC1 noted as > 100 µM

Lab book: TGI of C[C@@]1(Cc2ccccc2)C(=O)N2[C@@H](CO)C(c3ccccc3)O[C@]2(C)c2ccccc21 (stereo not given in full) noted as > 100 µM

Lab book: TGI of COc1cc(/C=C/C(=O)N2CCC=CC2=O)cc(OC)c1OC noted as 5.53 µM

Lab book: TGI of CCCCCCCCCC(CCCC(O)CC(=O)O)OC1OC(COC2OC(C)C(OC(C)=O)C(O)C2O)C(O)C(O)C1OC1OC(CO)C(O)C(O)C1OC1OC(C)C(OC(=O)CC(C)C)C(O)C1O (stereo not given) noted as > 35 µM

Lab book: TGI of C/C(=N/NC(=O)C[n+]1ccccc1)C(CN(CC(C)C)CC(C)C)C(=O)Nc1ccc(C)cc1C (stereo not given) noted as > 100 µM

Lab book: TGI of Cc1nc(-c2cnc(NC(C)C)n(C)c2=O)ccc1Oc1ccnc(-c2cnn(C)c2)c1 noted as > 100 µM

Lab book: TGI of O=C1c2ccccc2C(=O)c2c1ccc1c(=O)n(-c3ccccc3C(F)(F)F)nnc21 noted as > 100 µM

Lab book: TGI of CCOC(=O)N(C)C(=C(F)F)C(F)(F)F noted as > 100 µM

Lab book: TGI of NC(=O)c1nnsc1NN=O noted as > 100 µM

Lab book: TGI of O=c1cc(NNc2ccccc2F)[nH]c(=O)[nH]1 noted as 35.1 µM

Lab book: TGI of Nc1ncnc2c1ncn2-c1ccc([N+](=O)[O-])cn1 noted as > 100 µM

Lab book: TGI of CC(c1ccccc1)[C@@H](C(=O)Nc1ccc(I)cc1F)N1C(=O)N[C@H](c2ccc(OC[C@H](O)CO)cc2)C1=O (stereo not given in full) noted as > 25 µM

Lab book: TGI of CC(=O)OCC1OC(n2c(N)c(C#N)c(C)c(C#N)c2=S)C(OC(C)=O)C(OC(C)=O)C1OC(C)=O (stereo not given) noted as > 100 µM

Lab book: TGI of CC1(C)S[C@H](CN)N[C@H]1C(=O)OC(c1ccccc1)c1ccccc1 noted as > 100 µM

Lab book: TGI of CCN(CC)CCC(CNc1ccnc2cc(Cl)ccc12)c1ccccc1 (stereo not given) noted as 3.45 µM

Lab book: TGI of C/C(=N\n1c(O)c(C#N)cc(C#N)c1=O)c1ccncc1 noted as > 100 µM
